Tested on: Colon cancer organoid
Experiment: Identification of compartment-specific drug sensitivities in O20 CRC organoid-stroma F20 CAF co-cultures. Organoid is transduced with Lucferase2-P2A-EGFP lentivirus, fibroblast with Renilla-dsRed lentivirus. Dual-Glo Luciferase assay is used to report viability data.
Type: functional, Homo sapiens
Design: dose or concentration left out as unconfirmed
Conditions: Transduced with Lucferase2-P2A-EGFP lentivirus
assay endpoint: Cell Viability (%)
The reply should be a number in %, with the unit left off.

> print(dat)
                               compound  assay.endpoint  unit.text  result.number
1  O=c1nc(-c2ccccn2)sc2ccccc12 [BTZO-1]  Cell Viability          %        113.092

# context switch: different compound, same Cell Viability
Identify measured Cell Viability associated with CCCCNc1ncc(-c2ccc(CN3CCOCC3)cn2)c(N[C@H]2CC[C@H](O)CC2)n1
8.867

* * *

System: Colon cancer organoid
Assay: Identification of compartment-specific drug sensitivities in O20 CRC organoid-stroma F20 CAF co-cultures. Organoid is transduced with Lucferase2-P2A-EGFP lentivirus, fibroblast with Renilla-dsRed lentivirus. Dual-Glo Luciferase assay is used to report viability data.
Type: functional, Homo sapiens
Set-up: dose or concentration left out as unconfirmed
Settings: Transduced with Renilla-dsRed lentivirus
assay endpoint: Cell Viability
Write the figure, then the unit, nothing else.

Example entries begin here.
> print(dat)
                  compound.structure.string    result
1  C[C@H](c1ccc(F)cc1)N(Cc1ccc(Cl)c(C(=O)O)c1)C(=O)c1cnc2ccccc2c1  103.742%
2  Cc1c(NC(=O)COc2ccc(Cl)cc2C(=O)c2cc(F)cc(C(F)(F)F)c2)ccc(C(=O)O)c1F  145.555%
3  CC(C)(O)c1cncc(-c2nc3ccc(F)cc3n2C2CC2)c1  128.543%
4  CCOC(=O)CCNc1cc(N2CCc3ccccc3CC2)nc(-c2cccnc2)n1  131.422%
5  CNC(=O)Nc1ccc(-c2nc(N3CC4CCC(C3)O4)c3cnn(C4CCC5(CC4)OCCO5)c3n2)cc1  97.6391%
6    CCNC(=O)c1cc2c(N3CCOC[C@@H]3C)ccnc2n1C   102.95%

# context switch: different compound, same Cell Viability
Give Cell Viability for C=CC(=O)Nc1ccc2[nH]c(=O)n(C3CCN(Cc4ccc(-c5ccc6c(c5)NC(=O)CO6)cc4)CC3)c2c1 tested on Colon cancer organoid.
98.7435%

* * *

Tested on: Colon cancer organoid
Experiment: Identification of compartment-specific drug sensitivities in O20 CRC organoid-stroma F20 CAF co-cultures. Organoid is transduced with Lucferase2-P2A-EGFP lentivirus, fibroblast with Renilla-dsRed lentivirus. Dual-Glo Luciferase assay is used to report viability data.
Format: functional, Homo sapiens
Set-up: dose or concentration left out as unconfirmed
Conditions: Transduced with Renilla-dsRed lentivirus
Let's look at some compounds and their measured Cell Viability.
Write the figure, then the unit, nothing else.

> print(dat)
                                   compound   result
1  COc1ccc2c(c1)O[C@@H](c1ccc(OC)c(OC)c1)C[C@H]2NC(=O)C1(c2ccc3c(c2)OC(F)(F)O3)CC1  101.93%

Identify measured Cell Viability associated with Cn1cc(CCn2cnc(-c3cnn(C)c3)c2-c2ccc(C#N)cc2)cn1
107.326%

Identify measured Cell Viability associated with CC(=O)NCC(=O)N1[C@@H]2CC[C@H]1c1ccc(Nc3ncc(C(F)(F)F)c(NC4CCC4)n3)cc12
155.761%

Identify measured Cell Viability associated with CC(=O)C1=C(C)N(c2cccc(C(F)(F)F)c2)C(=O)N[C@@H]1c1ccc(C#N)nc1
133.591%

Identify measured Cell Viability associated with COc1ncc(-c2ccc3nccc(-c4ccnnc4)c3c2)cc1NS(=O)(=O)c1ccc(F)cc1F
94.8256%

Identify measured Cell Viability associated with COc1cc(Nc2ncc3c(n2)-c2ccc(Cl)cc2C(c2c(F)cccc2OC)=NC3)ccc1C(=O)O
322.747%

Identify measured Cell Viability associated with Cc1c(Oc2ccc(F)cc2)c(OC(C)C)nn1-c1ccc(C2CC2)cn1
118.396%
